Biological target: human B1R (Homo sapiens, UniProt P46663)
Construct: expressed in transfected cells; host or cells: CHO K1 cells (Chinese Hamster Ovary), stably transfected
Sequence (P46663 1-353): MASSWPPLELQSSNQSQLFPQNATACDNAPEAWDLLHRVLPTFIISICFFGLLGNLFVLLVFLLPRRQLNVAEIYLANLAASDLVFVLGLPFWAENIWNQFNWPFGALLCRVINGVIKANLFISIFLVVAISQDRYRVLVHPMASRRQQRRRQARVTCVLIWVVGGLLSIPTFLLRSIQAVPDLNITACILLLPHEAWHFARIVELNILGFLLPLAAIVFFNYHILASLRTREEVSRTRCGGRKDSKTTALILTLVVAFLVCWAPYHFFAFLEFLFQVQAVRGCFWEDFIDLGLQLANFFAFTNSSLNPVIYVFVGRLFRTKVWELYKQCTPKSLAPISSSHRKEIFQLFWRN
Assay: Functional assay at bradykinin receptor 1 (B1R): Ca2+ fluorescence (Fluo-4) in FLIPR/Novostar, antagonist mode
Assay type: cell-based
Conditions: test substance 10 µM; CHO K1 cells stably transfected with human B1R gene (hB1R-Zellen); agonist Lys-Des-Arg9-Bradykinin at EC80; % inhibition relative to maximal achievable inhibition; read-out: % Inhibierung (human B1R) bei 10 µM
quantity.kind: inhibition at 10 µM (%)

COc1cc(C)c(S(=O)(=O)Cc2noc(C(=O)N3[C@@H]4CC[C@H]3CC(Oc3ccncc3)C4)n2)c(C)c1 (stereo partly drawn) :: 100
COc1cc(C)c(S(=O)(=O)Cc2noc(CC(=O)N(C)C3CCN(c4ccnc(N(C)C)n4)CC3)n2)c(C)c1 :: 100

I = COc1cc(C)c(S(=O)(=O)Cc2noc(CC(=O)N3CCC(Cc4ccncc4)CC3(C)C)n2)c(C)c1 (stereo not drawn)
II = CC(=O)N1CCC(NC(=O)Cc2nc(CS(=O)(=O)c3cccc(Cl)c3Cl)no2)C(C)(C)C1 (stereo not drawn)
INPUT: // which entry reports the smaller inhibition at 10 µM, I or II ? // output: label of the selected item
OUTPUT: II

###

Target: human B1R (Homo sapiens, UniProt P46663)
Construct: expressed in transfected cells; host or cells: CHO K1 cells (Chinese Hamster Ovary), stably transfected
Sequence (P46663 1-353): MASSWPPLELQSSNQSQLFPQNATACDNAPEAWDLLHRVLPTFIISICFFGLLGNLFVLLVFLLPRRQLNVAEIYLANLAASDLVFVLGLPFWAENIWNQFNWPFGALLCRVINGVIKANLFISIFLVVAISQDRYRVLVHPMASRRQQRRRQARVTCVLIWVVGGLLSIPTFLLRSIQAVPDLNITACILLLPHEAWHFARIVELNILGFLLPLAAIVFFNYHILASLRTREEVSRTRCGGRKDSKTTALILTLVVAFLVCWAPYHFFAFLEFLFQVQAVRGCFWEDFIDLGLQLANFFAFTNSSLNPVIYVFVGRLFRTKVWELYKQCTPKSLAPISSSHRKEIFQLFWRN
Experiment: Functional assay at bradykinin receptor 1 (B1R): Ca2+ fluorescence (Fluo-4) in FLIPR/Novostar, antagonist mode
Assay type: cell-based
Details: test substance 10 µM; CHO K1 cells stably transfected with human B1R gene (hB1R-Zellen); agonist Lys-Des-Arg9-Bradykinin at EC80; % inhibition relative to maximal achievable inhibition; read-out: % Inhibierung (human B1R) bei 10 µM
quantity.kind: inhibition at 10 µM (%)

COc1cc(C)c(S(=O)(=O)Cc2noc(CC(=O)N3CCN(Cc4ccc(OC)nc4)CC3)n2)c(C)c1 [SC-51] :: 100
Cc1cc(S(=O)(=O)Cc2noc(CC(=O)NC3CCC(N(C)C)CC3)n2)c(C)cc1Cl (centres unmarked) [CC-81] :: 79
COc1cc(C)c(S(=O)(=O)Cc2noc(C(=O)N3CCC4(CCN(c5ccncc5)C4)C3)n2)c(C)c1 (centres unmarked) [SC-05] :: 100
Cc1cc(S(=O)(=O)Cc2noc(C(=O)NC3CCNCC3(C)C)n2)c(C)cc1Cl (centres unmarked) [CC-24] :: 86
CC1(C)CC(c2ccncc2)CCC1NC(=O)Cc1nc(CS(=O)(=O)c2cccc(Cl)c2Cl)no1 (centres unmarked) [CC-109] :: 100
COc1cc(C)c(S(=O)(=O)Cc2noc(C(=O)N3CCC(N4CCN(C)CC4)CC3)n2)c(C)c1 [CC-129] :: 100
COc1cc(C)c(S(=O)(=O)Cc2nnc(CC(=O)NC3CCC(N(C)C)CC3)o2)c(C)c1 (centres unmarked) [CC-34] :: 100
Cc1cc(S(=O)(=O)Cc2noc(C(=O)N(C)CCC3CCN(c4ccncc4)CC3)n2)c(C)cc1Cl [CC-16] :: 100
COc1cc(C)c(S(=O)(=O)Cc2cc(C)n(CC(=O)NC3CCNCC3(C)C)n2)c(C)c1 (centres unmarked) [CC-171] :: 71
COc1cc(C)c(S(=O)(=O)Cc2cn(CC(=O)NC3CCC(N4CCN(C)CC4)CC3(C)C)nn2)c(C)c1 (centres unmarked) [CC-162] :: 100
COc1cc(C)c(S(=O)(=O)Cc2cn(CC(=O)N(C3CCC(N(C)C)CC3)C3CC3)nn2)c(C)c1 (centres unmarked) [CC-186] :: 100
